# System Name: panel of more than 300 wild-type and mutant kinases (313 kinase panel) (Homo sapiens, UniProt P09769)
# Test Summary: Kinase profiling in a biochemical assay panel (mobility shift assays and ELISA), %-inhibition at 1 μM; selectivity entropy
# Reported Conditions: kinase FGR; compound at 1 μM
Provide the recorded %-inhibition of FGR for the entries that follow.

Known %-inhibition of FGR results, listed for orientation:
sample_smiles=O=S(=O)(c1cccc2cnccc12)N1CCCNCC1 reported_value=-4.71%
sample_smiles=CC(=O)Nc1cccc(-n2c(=O)n(C3CC3)c(=O)c3c(Nc4ccc(I)cc4F)n(C)c(=O)c(C)c32)c1 reported_value=-9%

Okay, here is my list. What is %-inhibition of FGR for each of these?
1. Cc1cn(-c2cc(NC(=O)c3ccc(C)c(Nc4nccc(-c5cccnc5)n4)c3)cc(C(F)(F)F)c2)cn1
2. CC(C)(C)c1nc(-c2cccc(NS(=O)(=O)c3c(F)cccc3F)c2F)c(-c2ccnc(N)n2)s1
3. C[C@@H](Oc1cc(-c2cnn(C3CCNCC3)c2)cnc1N)c1c(Cl)ccc(F)c1Cl
4. CO[C@H]1C[C@@H]2CC[C@@H](C)[C@@](O)(O2)C(=O)C(=O)N2CCCC[C@H]2C(=O)O[C@H]([C@H](C)C[C@@H]2CC[C@@H](OC(=O)C(C)(CO)CO)[C@H](OC)C2)CC(=O)[C@H](C)/C=C(\C)[C@@H](O)[C@@H](OC)C(=O)[C@H](C)C[C@H](C)/C=C/C=C/C=C/1C
5. COc1cc(Nc2c(C#N)cnc3cc(OCCCN4CCN(C)CC4)c(OC)cc23)c(Cl)cc1Cl

Resp:
["55%", "82%", "70%", "-3%", "92%"]

Cited source: paper PMC3961306
